Sourced from the NIST ThermoML archive (doi:10.1016/j.jct.2016.09.007)

- run_conditions: 313.15 K; 93.2 kPa; Liquid; Vibrating tube method
Rule: Satisfied for mass density not less than 800 kg/m3, Not satisfied for anything less.

Answer whether mass density of CCCC(=O)[O-].CCCC[NH3+] [n-butylammonium butanoate] is greater than or equal to 800 kg/m3.
Satisfied

Identify whether the reported mass density of the following molecule is 800 kg/m3 or greater: "CCO"
Not satisfied

# ---- query molecule ----
In plain terms: is recorded mass density at least 800 kg/m3 for "CO" ?
Not satisfied

----------
Documented mass density across a set of molecules
- run_conditions: 298.15 K; 93.2 kPa; Liquid; Vibrating tube method
Provide the reading as a plain figure in kg/m3.

Use these answered entries as a reference point.
Answer with reported mass density of CCO [ethanol]
785.366

Supply recorded mass density for CO [methanol] here.
786.636

---
# return recorded mass density for input CCCCO [butan-1-ol]
805.71

Provide measured mass density value, entry: CCCC(=O)[O-].CCCC[NH3+] [n-butylammonium butanoate]
925.509

Indicate the recorded mass density value for this molecule: CCCO [propan-1-ol]
799.62

Give me measured mass density, please, for this molecule: CCCCCO [pentan-1-ol]
811.144
